- Tested on: P. aeruginosa
- experiment_description: AK assay 384-well format, Prestwick library screening
- Type: cell-based, Pseudomonas aeruginosa
- test_conditions: Pseudomonas aeruginosa, 3 h, 50 μM final drug concentration; planktonic; […]; read-out: AK-based Prestwick Library Screening Results, P. aeruginosa (fold increase in extracellular AK activity)
Counter-ions that a name gives are not always drawn.
observation_type: fold induction at 50 µM
Returns: the value as a bare number; no unit string appended.

compound="C=C(NC(=O)C(=C)NC(=O)c1csc(C2=N[C@@H]3c4csc(n4)[C@H]4NC(=O)c5csc(n5)[C@H]([C@](C)(O)[C@@H](C)O)NC(=O)[C@H]5CSC(=N5)/C(=C/C)NC(=O)[C@H]([C@@H](C)O)NC(=O)c5csc(n5)[C@]3(CC2)NC(=O)[C@H](C)NC(=O)C(=C)NC(=O)[C@H](C)NC(=O)[C@H]([C@@H](C)CC)N[C@@H]2C=Cc3c([C@H](C)O)cc(nc3[C@H]2O)C(=O)O[C@@H]4C)n1)C(N)=O [Thiostrepton]" assay_system="P. aeruginosa" observation_type="fold induction at 50 µM" result_value=0.9
compound="COc1cnc(NS(=O)(=O)c2ccc(N)cc2)nc1 [Sulfameter]" assay_system="P. aeruginosa" observation_type="fold induction at 50 µM" result_value=1.1
compound="COc1ccc2c3c([nH]c2c1)C(C)=NCC3 [Harmaline hydrochloride dihydrate]" assay_system="P. aeruginosa" observation_type="fold induction at 50 µM" result_value=1

Please supply the value of reported fold induction at 50 µM for the item COc1ccc2c(OC)c3ccoc3nc2c1OC [Skimmianine]
0.6

Please supply the value of reported fold induction at 50 µM for the item COc1ccn(C)c(=O)c1C#N [Ricinine]
0.7

Please supply the value of reported fold induction at 50 µM for the item c1cncc(C2=NCCC2)c1 [Myosmine]
0.4

Please supply the value of reported fold induction at 50 µM for the item CN(C)C(=O)Oc1cccc([N+](C)(C)C)c1 [Neostigmine bromide]
1.1

Please supply the value of reported fold induction at 50 µM for the item c1cncc([C@@H]2CCCCN2)c1 [Anabasine]
0.9

Please supply the value of reported fold induction at 50 µM for the item CCn1cc(C(=O)O)c(=O)c2cnc(N3CCNCC3)nc21 [Pipemidic acid]
0.9

Please supply the value of reported fold induction at 50 µM for the item COc1c(O[C@@H]2O[C@H](CO)[C@@H](O)[C@H](O)[C@H]2O)cc2c(c1OC)-c1ccc(SC)c(=O)cc1[C@@H](NC(C)=O)CC2 [Thiocolchicoside]
1

Please supply the value of reported fold induction at 50 µM for the item C=C(C)[C@@H]1[C@H]2OC(=O)[C@@H]1[C@]1(O)C[C@H]3O[C@]34C(=O)O[C@H]2[C@]14C [Picrotoxinin]
0.6

Please supply the value of reported fold induction at 50 µM for the item C#CCN(C)[C@H](C)Cc1ccccc1 [Selegiline hydrochloride]
1.2

Please supply the value of reported fold induction at 50 µM for the item Cc1ncc(CO)c(CO)c1O [Pyridoxine hydrochloride]
1.2

Please supply the value of reported fold induction at 50 µM for the item CCN1C[C@]2(C)CC[C@H](OC)[C@@]34C1[C@]1(OCO[C@@]15C[C@H](OC)[C@H]1C[C@]3(O)[C@@H]5[C@H]1OC)[C@@H](OC(C)=O)[C@H]24 [Deltaline]
0.8

Please supply the value of reported fold induction at 50 µM for the item C=C[C@]12CN(C)[C@@H]3[C@H]4CO[C@H](C[C@H]41)[C@]1(C(=O)Nc4ccccc41)[C@@H]32 [Gelsemine]
0.9

----------
- Test system: E. coli
- experiment_description: AK assay 384-well format, Prestwick library screening
- Assay type: cell-based, Escherichia coli
- test_conditions: Escherichia coli, 3 h; planktonic E. coli; 50 μM final drug concentration; 384-well; cutoff for positive-scoring molecules 3-fold increase; read-out: AK-based Prestwick Library Screening Results: E. coli (increase in extracellular AK activity)
Counter-ions that a name gives are not always drawn.
Returns one of y or n; y when fold induction at 50 µM is >= 0.7.

Please check the record CN(C)CCOC(c1ccccc1)c1ccccc1 [Diphenhydramine hydrochloride] and state if its fold induction at 50 µM is at or above 0.7.
y

Please check the record CCCNC(=O)NS(=O)(=O)c1ccc(Cl)cc1 [Chlorpropamide] and state if its fold induction at 50 µM is at or above 0.7.
n

Please check the record CN(C)CCn1nnnc1SCC1=C(C(=O)O)N2C(=O)[C@@H](NC(=O)Cc3csc(N)n3)[C@H]2SC1 [Cefotiam hydrochloride] and state if its fold induction at 50 µM is at or above 0.7.
y

Please check the record CC(C)NCC(O)COc1ccc(COCCOC(C)C)cc1 (stereo not drawn) [Bisoprolol fumarate] and state if its fold induction at 50 µM is at or above 0.7.
n

----------
- System: A. baumannii strain 98-37-09
- experiment_description: AK assay 384-well format, Prestwick library screening
- Assay type: cell-based, Acinetobacter baumannii
- test_conditions: Acinetobacter baumannii, 983709, 3 h; 50 μM final drug concentration; planktonic; cutoff for positive-scoring molecules 3-fold increase; read-out: AK-based Prestwick Library Screening Results, A. baumannii (fold increase in extracellular AK activity)
Where a name gives a salt, the structure may show the parent alone.
Binning scheme for fold induction at 50 µM: A: < 0.7; B: ≥ 0.7 and < 0.9; C: ≥ 0.9

compound="COC(=O)C1=C(C)NC(C)=C(C(=O)OCC(C)C)C1c1ccccc1[N+](=O)[O-] (stereo not shown) [Nisoldipine]" class=C
compound="O=C(O)c1ccccc1OP(=O)(O)O [Fosfosal]" class=B
compound="Oc1ccc(OCc2ccccc2)cc1 [Monobenzone]" class=A

Which of the defined bands does the recorded fold induction at 50 µM of Cc1cc(=O)oc2cc(O)ccc12 [Hymecromone] sit within?
B

Which of the defined bands does the recorded fold induction at 50 µM of COc1ccccc1N1CCN(CCCNc2cc(=O)n(C)c(=O)n2C)CC1 [Urapidil hydrochloride] sit within?
C

Which of the defined bands does the recorded fold induction at 50 µM of CC1(C)[C@@H](OC(=O)CCC(=O)O)CC[C@]2(C)[C@H]3C(=O)C=C4[C@@H]5C[C@@](C)(C(=O)O)CC[C@]5(C)CC[C@@]4(C)[C@]3(C)CC[C@@H]12 [Carbenoxolone disodium salt] sit within?
C

Which of the defined bands does the recorded fold induction at 50 µM of CCCCCN(CCCCC)C(=O)C(CCC(=O)O)NC(=O)c1ccc(Cl)c(Cl)c1 (stereo not shown) [Lorglumide sodium salt] sit within?
B

Which of the defined bands does the recorded fold induction at 50 µM of CN(C)CCN(Cc1ccc(Cl)cc1)c1ccccn1 [Chloropyramine hydrochloride] sit within?
A

Which of the defined bands does the recorded fold induction at 50 µM of COc1ccc(C(=O)c2ccccc2)c(O)c1 [Oxybenzone] sit within?
A

Which of the defined bands does the recorded fold induction at 50 µM of CC(=O)/N=c1/sc(S(N)(=O)=O)nn1C [Methazolamide] sit within?
A

Which of the defined bands does the recorded fold induction at 50 µM of Cn1c(-c2ccc3c(c2)OCO3)cc(=O)c2ccccc21 [Graveoline] sit within?
B

Which of the defined bands does the recorded fold induction at 50 µM of CC1(C)S[C@@H]2[C@H](NC(=O)[C@H](NC(=O)N3CCNC3=O)c3ccccc3)C(=O)N2[C@H]1C(=O)O [Azlocillin sodium salt] sit within?
C

Which of the defined bands does the recorded fold induction at 50 µM of CC(C(=O)O)c1ccc(C(=O)c2cccs2)cc1 (stereo not shown) [Suprofen] sit within?
B

Which of the defined bands does the recorded fold induction at 50 µM of NS(=O)(=O)c1cc2c(cc1Cl)NC(C(Cl)Cl)NS2(=O)=O (stereo not shown) [Trichlormethiazide] sit within?
C

Which of the defined bands does the recorded fold induction at 50 µM of C[C@]12CC[C@@H]3c4ccc(OS(=O)(=O)O)cc4CC[C@H]3[C@@H]1CCC2=O [Estropipate] sit within?
C

Which of the defined bands does the recorded fold induction at 50 µM of O=C(O)CCNC(=O)c1ccc(/N=N/c2ccc(O)c(C(=O)O)c2)cc1 [Balsalazide Sodium] sit within?
A

----------
- Tested on: E. coli
- experiment_description: AK assay 384-well format, Prestwick library screening
- Assay type: cell-based, Escherichia coli
- test_conditions: Escherichia coli, 3 h; 50 μM final drug concentration; cutoff for positive-scoring molecules 3-fold increase; read-out: AK-based Prestwick Library Screening Results, E. coli (fold increase in extracellular AK activity)
Counter-ions that a name gives are not always drawn.
Each entry below lists one item and its recorded fold induction at 50 µM value.
Returns: the value as a bare number; no unit string appended.

Some entries whose results are on file:
molecule=Cc1cc2cc3c(C)cc(=O)oc3c(C)c2o1 result_value=1.2
molecule="CO/N=C(\\C(=O)N[C@@H]1C(=O)N2C(C(=O)O)=C(COC(N)=O)CS[C@H]12)c1ccco1 [Cefuroxime sodium salt]" result_value=12.1
molecule="CCOc1cc(CC(=O)N[C@@H](CC(C)C)c2ccccc2N2CCCCC2)ccc1C(=O)O [Repaglinide]" result_value=0.4
molecule="CC(=O)OCC(=O)[C@@]12OC(C)(C)O[C@@H]1C[C@H]1[C@@H]3C[C@H](F)C4=CC(=O)C=C[C@]4(C)[C@@]3(F)[C@@H](O)C[C@@]12C [Fluocinonide]" result_value=1

Please supply the value of reported fold induction at 50 µM for the item CCOc1ccc2ccccc2c1C(=O)N[C@@H]1C(=O)N2[C@@H]1SC(C)(C)[C@@H]2C(=O)O [Nafcillin sodium salt monohydrate]
1.2

Please supply the value of reported fold induction at 50 µM for the item "O=c1oc2ccccc2c(O)c1Cc1c(O)c2ccccc2oc1=O"
1.1

Please supply the value of reported fold induction at 50 µM for the item COc1ccccc1N1CCN(CC(O)COc2cccc3ccccc23)CC1 (stereo not shown) [Naftopidil dihydrochloride]
0.9

Please supply the value of reported fold induction at 50 µM for the item Cc1cc(CC(=O)O)n(C)c1C(=O)c1ccc(Cl)cc1 [Zomepirac sodium salt]
1.1

Please supply the value of reported fold induction at 50 µM for the item O=C(c1ccccc1)c1ccc2n1CCC2C(=O)O (stereo not shown)
1.3

Please supply the value of reported fold induction at 50 µM for the item CC(C)NCC(O)c1ccc(NS(C)(=O)=O)cc1 (stereo not shown) [Sotalol hydrochloride]
0.4
